test system: GB4; assay: qHTS profiling for inhibitors of Plasmodium falciparum proliferation (AID 504749); also: nearly all actives have a fitted effect of over 60% in size; settings: P. falciparum in erythrocytes, SYBR Green DNA, 72 h; series mostly up to 28.7 µM
Inconclusive results are not listed. Active and inactive are the calls of the source. Calls follow the shape of the dose curve; as a rule, active = well fitted inhibition curve with a large enough effect; inconclusive = small, poorly fitted or top-dose-only effect; inactive = flat fitted curve, though single readings scatter.
Valid outcomes are listed here; reply with one: t for active, f for inactive

Study these solved cases before continuing.
CCc1ccc(S(=O)(=O)O)cc1
f
C=CC[C@@H]1/C=C(\C)C[C@H](C)C[C@H](OC)[C@H]2O[C@@](O)(C(=O)C(=O)N3CCCC[C@H]3C(=O)O[C@H](/C(C)=C/[C@@H]3CC[C@@H](O)[C@H](OC)C3)[C@H](C)[C@@H](O)CC1=O)[C@H](C)C[C@@H]2OC
t
NCC[C@H](O)C(=O)N[C@@H]1C[C@H](N)[C@@H](O[C@H]2O[C@H](CN)CC[C@H]2N)[C@H](O)[C@H]1O[C@H]1O[C@H](CO)[C@@H](O)[C@H](N)[C@H]1O
f
CC(C)[C@H](N)C(=O)OCC(CO)OCn1cnc2c(=O)[nH]c(N)nc21 (stereo partly drawn)
f
C[C@H](N)C(=O)N[C@@H](C)P(=O)(O)O
f
CC1=C(/C=C/C(C)=C/C=C/C(C)=C/C(=O)Oc2c(C)c(C)c3c(c2C)CC[C@@](C)(CCC[C@H](C)CCC[C@H](C)CCCC(C)C)O3)C(C)(C)CCC1
f
CN1C(=O)C[C@@H](C(=O)N[C@@H](Cc2cnc[nH]2)C(=O)N2CCC[C@H]2C(N)=O)NC1=O
f
Cc1cccc(C)c1NC(=O)NC1=CCCN1C
f
c1ccc2c(c1)OCC(CN1CCCCC1)O2 (stereo not drawn)
f
CN1CCC(OC(=O)C(Oc2ccc(Cl)cc2)Oc2ccc(Cl)cc2)CC1
f

Now let's try a different one.
# lookup: test call for CC(=O)Nc1ccc(OC(=O)c2ccccc2O)cc1
f

---

experiment: Cellular Toxicity (caspase-3) SK-N-SH (AID 661); conditions: SK-N-SH caspase-3 activation, qHTS;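 also: cells exposed to compound for 16 hours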
Activity calls are given as the source filed them. The call rests on the fitted dose curve; in most records, active means well fitted activation curve with a large enough effect; inconclusive means small, poorly fitted or top-dose-only effect; inactive means flat fitted curve, though single readings scatter.
measurement.name: outcome

CC1=CCC2CC1C2(C)C (stereo not drawn)
inactive
Oc1ccc(/C=C/c2cc(O)cc(O)c2)cc1
inactive
[O-][N+](=Nc1ccccc1)c1ccccc1
inactive

---

system: OV90; assay: Primary qHTS to identify gynecologic anti-cancer compounds using libraries of approved drugs and bioactive compounds (AID 1345084); settings: Gynecologic cancer cell panel viability, ATPlite luminescence, 48 h; series mostly up to 57.5 µM; also: nearly all actives have a fitted effect of over 55% in size; also: potency is read from the fitted curve at half-maximal effect
Records with an inconclusive call do not appear. Activity calls are given as the source filed them. The call rests on the fitted dose curve; in most records, active means well fitted cell-killing curve with a large enough effect; inconclusive means small, poorly fitted or top-dose-only effect, or effect the other way; inactive means flat fitted curve, though single readings scatter.
measurement.name: Potency

Worked cases, Potency given:
C=C1[C@H](CO)[C@@H](O)C[C@@H]1n1cnc2c(=O)[nH]c(N)nc21
inactive
CC(C)(C)c1ccc(CN2CCN(C(c3ccccc3)c3ccc(Cl)cc3)CC2)cc1 (stereo unspecified)
inactive
O=C(O)CCC(=O)c1ccc(-c2ccccc2)cc1
inactive
COc1ccc(C[C@H](C)NC[C@@H](O)c2ccc(O)c(NC=O)c2)cc1
inactive
CO[C@H]1C[C@@H]2CC[C@@H](C)[C@@](O)(O2)C(=O)C(=O)N2CCCC[C@H]2C(=O)O[C@H]([C@H](C)C[C@@H]2CC[C@@H](OC(=O)C(C)(CO)CO)[C@H](OC)C2)CC(=O)[C@H](C)/C=C(\C)[C@@H](O)[C@@H](OC)C(=O)[C@H](C)C[C@H](C)/C=C/C=C/C=C/1C
inactive

What value of Potency has been recorded for this entry: COc1ccc2nc(NC(=O)Nc3ccccc3)sc2c1
22.4 µM (active)
